Tested on: HT29 colon
Assay: NCI tumour cell line growth inhibition, 48 h
Recorded Endpoint: TGI

INSERT INTO assay_data (compound, study_system, reading) VALUES
  ('O=C(NCCCn1ccnc1[N+](=O)[O-])C(=O)NCCCn1ccnc1[N+](=O)[O-]', 'HT29 colon', '> 100 µM'),
  ('CC12O[Te]34OC1(C)C(C)(O3)C2(C)O4', 'HT29 colon', '30.3 µM');

Recorded result, CCOP(=O)(CC1OC(CO)C(O)C1O)OCC (stereo unspecified) , TGI: > 61.8 µM

----------
System: SNB-19 CNS
Assay: NCI tumour cell line growth inhibition, 48 h
Entries annotated with measured GI50

Worked cases, GI50 given:
INSERT INTO measurements (compound, reading) VALUES
  ('COc1ccc(-c2nc(/C=N/Nc3cc(C)nc4ccc(Br)cc34)c(C)o2)cc1', '1.95 µM'),
  ('Cc1ccc(NCCNCC(O)CO)c2c(=O)c3ccccc3sc12 (stereo not drawn)', '1.52 µM');

Alright, here's another compound for you.
Lab note: compound C=C1C(=O)C23CC1CCC2C12CO[C@@]3(O)[C@@H](O)C1C(C)(C)C=CC2=O (stereo partly drawn) tested on SNB-19 CNS; recorded GI50 was 20.4 µM

----------
Test system: OVCAR-3 ovarian
Experiment: NCI tumour cell line growth inhibition, 48 h
Entries annotated with measured GI50

Worked cases, GI50 given:
INSERT INTO assay_data (compound, reading) VALUES
  ('O=C(Nc1nc2ccc(F)cc2s1)c1cccnc1Nc1ccc(Cl)cc1Cl', '2.18 µM'),
  ('O=c1c2ccccc2c(=O)c2c1sc1c(=O)c3ccc(O)cc3c(=O)c12', '0.263 µM'),
  ('Cc1nc2cc(Nc3nc(Nc4ccc(F)cc4)nc(-c4ccc(Cl)cc4)n3)ccc2n1Cc1ccccc1', '7.91 µM'),
  ('Cc1cc(C(=O)Nc2cc(Nc3ncccc3-c3ncnc4nc[nH]c34)ccc2F)cc(C(C)(C)C#N)c1', '5.99 µM');

Recorded result, O=C1c2cc3c(cc2-c2c1c1cc(F)c(F)cc1c(=O)n2C[C@H](O)CO)OCO3 , GI50: 0.224 µM

Recorded result, Cc1cc(Nc2cc(N3CCN(C)CC3)nc(C#Cc3ccccc3)n2)n[nH]1 , GI50: 4.46 µM

Recorded result, COc1ccc(-c2nn(-c3cccc(Cl)c3)cc2-c2cc(-c3cccs3)no2)cc1 , GI50: 5.07 µM

Recorded result, COc1ccc(CNC(=O)c2ccc(-c3cc(-c4nnc(C)o4)ccc3C)cc2)cc1 , GI50: 17.1 µM

Recorded result, COc1ccc(C2NC(=S)NC3=C2COc2ccc(F)cc23)cc1OC (stereo unspecified) , GI50: 11 µM

----------
Tested on: SF-295 CNS
Assay: NCI tumour cell line growth inhibition, 48 h; in the data active = GI50 below about 0.43 µM; inactive = the rest
Could you please pick one outcome from this set? active, inactive

INSERT INTO measurements (compound, discrete_label) VALUES
  ('O=C1C2=C(Nc3cc([N+](=O)[O-])ccc3N2)OC1c1ccc(C2OC3=C(Nc4ccc([N+](=O)[O-])cc4N3)C2=O)cc1 (stereo not given)', 'inactive'),
  ('COc1ccc(-c2nn(-c3cccc(Cl)c3)cc2-c2cc(-c3cccs3)no2)cc1', 'inactive'),
  ('CCc1ccc(OCc2ccccc2C(=O)Nc2ccc3nc(C)cc(N)c3c2)cc1', 'inactive'),
  ('O=c1c2ccccc2c(=O)c2c1sc1c(=O)c3ccc(O)cc3c(=O)c12', 'active');

Query string: Record request — test call for Cc1nc2cc(Nc3nc(Nc4ccc(F)cc4)nc(-c4ccc(Cl)cc4)n3)ccc2n1Cc1ccccc1
Result string: inactive

Query string: Record request — test call for COc1ccc2nc3cc(Cl)ccc3c(Nc3ccc(O)c(CN4CCCC4)c3)c2c1
Result string: inactive

Query string: Record request — test call for O=C(Nc1nc2ccc(F)cc2s1)c1cccnc1Nc1ccc(Cl)cc1Cl
Result string: inactive

Query string: Record request — test call for N#Cc1c(-c2ccc(Cl)cc2)csc1NC(=O)Nc1cccc(C(F)(F)F)c1
Result string: inactive

Query string: Record request — test call for COc1ccc(-c2conc2-c2ccccc2)cc1
Result string: active

Query string: Record request — test call for COc1cc(-c2nn3c(=O)n(-c4ccc(Cl)cc4)c(=O)nc3s2)cc(OC)c1OC
Result string: inactive

----------
Entries annotated with measured TGI
Test system: LOX IMVI melanoma
Test: NCI tumour cell line growth inhibition, 48 h

Worked cases, TGI given:
INSERT INTO measurements (compound, reading) VALUES
  ('COc1ccc(CCn2ccc(=O)c(O)c2C)cc1OC', '78.9 µM'),
  ('Cc1ccc2nc(Nc3ccccc3C)c(Nc3ccccc3C)nc2c1', '39.5 µM');

Recorded result, Cc1cc(N(CCC#N)CCC#N)ccc1/C=C/C(=O)Nc1ccccc1Cl , TGI: > 100 µM

Recorded result, COC(=O)c1ccc2cc(O)ccc2c1 , TGI: > 100 µM

Recorded result, CC(=O)[O-].O=[N+]([O-])c1ccc([O-])c(C=NCCN=Cc2cc([N+](=O)[O-])ccc2[O-])c1.[Mn+3] , TGI: > 100 µM

Recorded result, C=C1C[C@@H]2CC[C@@]34CC5O[C@H]6C(O[C@H]7CC[C@H](CC(=O)O[C@@H]8[C@@H](C)[C@@H]9O[C@@H]%10C[C@]%11(C[C@@H]%12O[C@]%13(C[C@H](C)[C@@H]%14O[C@@H]%15CC(C(COC(C)=O)OC(C)=O)O[C@@H]%15C[C@@H]%14O%13)C[C@H](C)[C@@H]%12O%11)O[C@@H]%10C[C@@H]9O[C@H]8CC8O[C@@H](CC[C@@H]1O2)C[C@@H](C)C8(O)CO)O[C@@H]7[C@@H]6O3)[C@H]5O4 (stereo partly drawn) , TGI: > 1 µM

Recorded result, C[N+]1(CCCCN2c3ccccc3Sc3cc(N=[N+]=[N-])ccc32)CCN(C(=O)CCNC(=O)Cc2ccc(C(=O)c3ccccc3)cc2)CC1 , TGI: > 78.1 µM

Recorded result, Fc1cccc(F)c1C1SCc2nc3cc(Cl)ccc3n21 (stereo not drawn) , TGI: 40 µM

Recorded result, O=C1Cc2ccccc2CCc2ccccc21 , TGI: > 100 µM

Recorded result, COC(=O)C1=C(C(=O)OC)C(C(=O)OC)C(C(=O)OC)C(C(=O)OC)(C(=O)OC)C(C(=O)OC)=C1C(=O)OC (stereo not drawn) , TGI: 28.2 µM

----------
Test system: COLO 205 colon
Experiment: NCI tumour cell line growth inhibition, 48 h
// label = TRUE if TGI is not less than 6 µM, otherwise FALSE

The examples below pair each entry with its known result.
INSERT INTO assay_data (compound, discrete_label) VALUES
  ('CCCCCCCCCCCCNC(=O)[C@H]1CSC(c2ccsc2)N1 (stereo not given in full)', 'TRUE'),
  ('COc1ccccc1-c1nccc(COc2ccccc2C[C@@H](Oc2ncnc3sc(-c4ccc(F)cc4)c(-c4ccc(OCCN5CCN(C)CC5)c(Cl)c4C)c23)C(=O)O)n1', 'FALSE'),
  ('O=c1n(CCCN2CCOCC2)nc2n1-c1ccc3ccccc3c1SC2', 'TRUE');

Query string: Entry Cn1c2ccccc2c2c3c(=O)[nH][nH]c(=O)c3c3c4ccccc4n(C)c3c21 : is its TGI no less than 6 µM?
Result string: TRUE

Query string: Entry Cc1nc2ccccc2n1Cc1ccc(NC(=S)Nc2ccccc2)cc1 : is its TGI no less than 6 µM?
Result string: TRUE

Query string: Entry O=C1C=CC(=O)c2c(O)c(N3CCN(c4ncccn4)CC3)c(Cl)c(O)c21 : is its TGI no less than 6 µM?
Result string: FALSE

Query string: Entry CN1CCN(CCCOc2ccc3ncnc(Nc4ccc(Oc5cccc(F)c5)c(Cl)c4)c3c2)CC1 : is its TGI no less than 6 µM?
Result string: FALSE

Query string: Entry NC(=O)c1ncn(C2OC(CO)C(O)C2O)c1NC(=S)NC(=O)c1ccccc1 (stereo not given) : is its TGI no less than 6 µM?
Result string: TRUE

Query string: Entry CN(C)C(=O)/N=C1\SC(=Nc2ccccc2)C(=Nc2ccccc2)N1c1ccc([N+](=O)[O-])cc1 : is its TGI no less than 6 µM?
Result string: TRUE

----------
Tested on: NCI-H522 lung
Assay: NCI tumour cell line growth inhibition, 48 h
// label = Fulfilled if TGI is not less than 30 µM, otherwise Not fulfilled

The examples below pair each entry with its known result.
INSERT INTO assay_data (compound, study_system, discrete_label) VALUES
  ('CC(Br)CN(CC(C)Br)c1ccc2c(c1)Cc1ccccc1-2 (stereo unspecified)', 'NCI-H522 lung', 'Not fulfilled'),
  ('O=C(O)C(O)c1ccc(F)cc1 (stereo unspecified)', 'NCI-H522 lung', 'Fulfilled'),
  ('Cc1ccc(-c2cc(C(Cl)Cl)on2)cc1', 'NCI-H522 lung', 'Fulfilled'),
  ('CN1C(=O)CC2(C)c3cc(C=O)ccc3N(C)C12 (stereo unspecified)', 'NCI-H522 lung', 'Fulfilled'),
  ('CC12O[Te]34OC1(C)C(C)(O3)C2(C)O4', 'NCI-H522 lung', 'Not fulfilled');

Query string: Entry COC(=O)[C@@H]1[C@H]2CC[C@]3(C)[C@@H](OC(C)=O)CC[C@H]3[C@@H]2CC[C@H]1C1(C)SCCS1 : is its TGI no less than 30 µM?
Result string: Fulfilled

Query string: Entry CN1CCN(CCCOc2ccc3ncnc(Nc4ccc(Oc5cccc(F)c5)c(Cl)c4)c3c2)CC1 : is its TGI no less than 30 µM?
Result string: Not fulfilled
